Items are presented alongside their recorded self-cleavage kobs at 10000 uM GlcN6P.
B1: glmS ribozyme (parent)
chain: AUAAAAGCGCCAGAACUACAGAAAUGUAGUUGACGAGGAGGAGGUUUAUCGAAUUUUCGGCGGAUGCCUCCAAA

# Variants of: B1
# MEASUREMENT_NOTES: self-cleavage kobs at 10000 uM GlcN6P; higher = faster cleavage; RNA array
# CONDITION_PARAMETERS: with glucosamine-6-phosphate
Fewer inactive variants are shown than the library holds.

# input May I ask what self-cleavage kobs at 10000 uM GlcN6P has been recorded for A42G U49G ?
# output 0.0011 s⁻¹

# input For the variant shown here, C10U C58A C68A , give the reported self-cleavage kobs at 10000 uM GlcN6P.
# output < 1e-05 s⁻¹

# input Requested field: self-cleavage kobs at 10000 uM GlcN6P. Item: A6G A12C U56G
# output 5.92e-05 s⁻¹

# input self-cleavage kobs at 10000 uM GlcN6P lookup needed for G43U G44A A48G C58A U69A C71G , thanks.
# output < 1e-05 s⁻¹
